Reference for the values: patent US20220340597A1

target_entity: UniProt Q9NR96
assay_comment: HEK293-Blue-hTLR-9 cells assay
stated_conditions: HEK293-Blue-hTLR9 cells, ODN2006 stimulation, 20 hrs, SEAP reporter; read-out: HEK/hTLR9 IC50
For each entry below, report its IC50 value.
Numbers only; they are read as µM.

Task: Answer with the recorded IC50 of C[C@@H]1CN(c2ccc(C#N)c3ncccc23)C[C@@H]2CN(CCc3ccc(N4C[C@H]5NCCO[C@@H]5C4)nc3)CCN21 [Example 124] only.
Result: 0.055

Task: Read the entry C[C@@H]1CN(c2ccc(C#N)c3ncccc23)C[C@@H]2CN(c3cncc4c3CCNC4)CCN21 [Example 44] and write its reported IC50.
Result: 0.05

Task: Specify measured IC50 for C[C@@H]1CN(c2ccc(C#N)c3ncccc23)C[C@@H]2CN(c3ccnc(N4CCNCC4)n3)CCN21 [Example 33] .
Result: 0.064

* * *

Assignment: determine reported IC50 for the given compounds.
target_entity: human TLR7 (Homo sapiens)
Sequence (Q9NYK1 27-1049): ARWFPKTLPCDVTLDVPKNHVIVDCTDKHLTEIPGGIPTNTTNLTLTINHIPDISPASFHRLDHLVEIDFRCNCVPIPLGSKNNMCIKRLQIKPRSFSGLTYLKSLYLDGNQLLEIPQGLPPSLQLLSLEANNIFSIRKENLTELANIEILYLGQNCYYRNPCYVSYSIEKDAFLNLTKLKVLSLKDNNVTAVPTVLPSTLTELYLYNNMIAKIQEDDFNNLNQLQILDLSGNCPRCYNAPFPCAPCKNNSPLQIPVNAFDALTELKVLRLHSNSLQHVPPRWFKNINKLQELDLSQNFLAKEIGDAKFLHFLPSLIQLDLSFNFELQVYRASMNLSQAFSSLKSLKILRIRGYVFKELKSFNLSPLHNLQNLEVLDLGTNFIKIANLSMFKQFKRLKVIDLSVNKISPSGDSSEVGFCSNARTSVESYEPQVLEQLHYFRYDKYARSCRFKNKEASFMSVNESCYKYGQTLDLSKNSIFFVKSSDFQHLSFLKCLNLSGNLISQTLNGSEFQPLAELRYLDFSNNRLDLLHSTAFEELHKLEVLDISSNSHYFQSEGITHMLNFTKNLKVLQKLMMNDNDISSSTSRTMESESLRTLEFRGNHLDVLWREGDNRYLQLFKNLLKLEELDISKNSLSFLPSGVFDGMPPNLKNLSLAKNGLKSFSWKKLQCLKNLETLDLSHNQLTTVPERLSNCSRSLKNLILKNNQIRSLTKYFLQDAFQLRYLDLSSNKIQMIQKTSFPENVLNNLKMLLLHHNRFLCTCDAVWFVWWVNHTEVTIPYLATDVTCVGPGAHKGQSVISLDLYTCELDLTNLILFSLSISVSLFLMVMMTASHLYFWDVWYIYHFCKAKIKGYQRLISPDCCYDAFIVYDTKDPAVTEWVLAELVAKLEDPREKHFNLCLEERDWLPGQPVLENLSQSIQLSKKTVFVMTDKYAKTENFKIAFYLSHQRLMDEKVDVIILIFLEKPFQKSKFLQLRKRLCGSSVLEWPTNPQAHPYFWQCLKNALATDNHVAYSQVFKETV
assay_comment: HEK293-Blue-hTLR-7 cells assay
stated_conditions: HEK293-Blue-hTLR7 cells, R848 stimulation, 20 hrs, SEAP reporter; read-out: HEK/hTLR7 IC50
Description: The following tests were carried out in order to determine the activity of the compounds of formula (I) and (Ia) in HEK293-Blue-hTLR-7/8/9 cells assay. HEK293-Blue-hTLR-7 cells assay: A stable HEK293-Blue-hTLR-7 cell line was purchased from InvivoGen (Cat. #: hkb-htlr7, San Diego, Calif., USA). […] Then 20 μL of the supernatant from each well was incubated with […] Quanti-blue substrate solution at 37° C. for 2 hrs and the absorbance was read at 620-655 nm using a spectrophotometer. […]
Your answer is read as nM, so omit the unit and give the number.

Task: Please report the measured IC50 for Cc1nc(N2CC(C)(N)C2)ccc1CN1CCN2[C@@H](C1)CN(c1ccc(C#N)c3ncccc13)C[C@H]2C [Example 76]
Result: 16

Task: // Input: [2H]c1ccc2c(N3C[C@@H]4CN(c5ccc(N6C[C@@H](N)[C@H](OC)C6)nc5)CCN4[C@@H](C)C3)ccc(C#N)c2n1 [Example 115] . Output its IC50 only.
Result: 10

Task: Quickly give me recorded IC50 for [2H]c1ccc2c(N3C[C@@H]4CN(Cc5ccc(N6C[C@@H]7C[C@H]6CN7)nc5C)CCN4[C@H](C)C3)ccc(C#N)c2n1 [Example 92]
Result: 6

Task: Tell me IC50 reported for CO[C@@H]1CN(c2ccc(CCN3CCN4[C@@H](C3)CN(c3ccc(C#N)c5ncccc35)C[C@H]4C)cn2)C[C@H]1N [Example 12]
Result: 12

Task: Complete the entry with IC50 for CO[C@H]1CN(c2ccc(CCN3CCN4[C@@H](C3)CN(c3ccc(C#N)c5ncccc35)C[C@H]4C)cn2)C[C@@H]1N [Example 25]
Result: 13

Task: Dear colleague, please send me the reported IC50 for [2H]c1ccc2c(N3C[C@@H]4CN(Cc5cnc(N6CCNCC6)cc5C)CCN4[C@H](C)C3)ccc(C#N)c2n1 [Example 87] when you can.
Result: 17

Task: Return value of IC50 for input [2H]c1ccc2c(N3C[C@@H]4CN(Cc5ccc(N6CC[C@@](C)(N)C6)nc5C)CCN4[C@H](C)C3)ccc(C#N)c2n1 [Example 81] , no commentary.
Result: 16

Task: For the compound C[C@@H]1CN(c2ccc(C#N)c3ncccc23)C[C@@H]2CN(Cc3cccc4c3CCNC4)CCN21 [Example 70] , report IC50.
Result: 11

Task: Return IC50 for the following compound: C[C@@H]1CN(c2ccc(C#N)c3ncccc23)C[C@@H]2CN(CCc3ccc(N4C[C@@H](N)[C@@H](F)C4)cn3)CCN21 [Example 19]
Result: 10

Task: Recall and state the measured IC50 for Cc1cc(N2CC3(CN(C)C3)C2)cnc1N1CCN2[C@@H](C1)CN(c1cc(=O)n(C)c3ncccc13)C[C@@H]2C [Example 113] .
Result: 6

* * *

target_entity: human TLR7 (Homo sapiens)
assay_comment: HEK293-Blue-hTLR-7 cells assay
stated_conditions: HEK293-Blue-hTLR7 cells, R848 stimulation, 20 hrs, SEAP reporter; read-out: HEK/hTLR7 IC50
property_label: IC50 (nM)
Reply with just the number (in nM).

Task: Could you please provide reported IC50 for C[C@@H]1CN(c2ccc(C#N)c3ncccc23)C[C@@H]2CN(c3ccnc(N4CCNCC4)c3)CCN21 [Example 32] ? Thanks!
Result: 16

Task: Entry C[C@@H]1CN(c2ccc(C#N)c3ncccc23)C[C@@H]2CN(Cc3ccc4c(c3)CNCC4)CCN21 (relative stereo) [Example 1] needs its IC50 filled in; supply it.
Result: 17

Task: For the compound C[C@@H]1CN(c2ccc(C#N)c3ncccc23)C[C@@H]2CN(Cc3cnc4c(c3)CNCC4)CCN21 [Example 6] , give its reported IC50.
Result: 14

Task: Give the reported IC50 for this compound. Cc1nc(N2CCN[C@H](C)C2)ccc1CN1CCN2[C@@H](C1)CN(c1ccc(C#N)c3ncccc13)C[C@H]2C [Example 86]
Result: 15

* * *

I'd appreciate it if you could supply IC50 values for the items below.
target_entity: human TLR9 (Homo sapiens)
Sequence (Q9NR96 26-1032): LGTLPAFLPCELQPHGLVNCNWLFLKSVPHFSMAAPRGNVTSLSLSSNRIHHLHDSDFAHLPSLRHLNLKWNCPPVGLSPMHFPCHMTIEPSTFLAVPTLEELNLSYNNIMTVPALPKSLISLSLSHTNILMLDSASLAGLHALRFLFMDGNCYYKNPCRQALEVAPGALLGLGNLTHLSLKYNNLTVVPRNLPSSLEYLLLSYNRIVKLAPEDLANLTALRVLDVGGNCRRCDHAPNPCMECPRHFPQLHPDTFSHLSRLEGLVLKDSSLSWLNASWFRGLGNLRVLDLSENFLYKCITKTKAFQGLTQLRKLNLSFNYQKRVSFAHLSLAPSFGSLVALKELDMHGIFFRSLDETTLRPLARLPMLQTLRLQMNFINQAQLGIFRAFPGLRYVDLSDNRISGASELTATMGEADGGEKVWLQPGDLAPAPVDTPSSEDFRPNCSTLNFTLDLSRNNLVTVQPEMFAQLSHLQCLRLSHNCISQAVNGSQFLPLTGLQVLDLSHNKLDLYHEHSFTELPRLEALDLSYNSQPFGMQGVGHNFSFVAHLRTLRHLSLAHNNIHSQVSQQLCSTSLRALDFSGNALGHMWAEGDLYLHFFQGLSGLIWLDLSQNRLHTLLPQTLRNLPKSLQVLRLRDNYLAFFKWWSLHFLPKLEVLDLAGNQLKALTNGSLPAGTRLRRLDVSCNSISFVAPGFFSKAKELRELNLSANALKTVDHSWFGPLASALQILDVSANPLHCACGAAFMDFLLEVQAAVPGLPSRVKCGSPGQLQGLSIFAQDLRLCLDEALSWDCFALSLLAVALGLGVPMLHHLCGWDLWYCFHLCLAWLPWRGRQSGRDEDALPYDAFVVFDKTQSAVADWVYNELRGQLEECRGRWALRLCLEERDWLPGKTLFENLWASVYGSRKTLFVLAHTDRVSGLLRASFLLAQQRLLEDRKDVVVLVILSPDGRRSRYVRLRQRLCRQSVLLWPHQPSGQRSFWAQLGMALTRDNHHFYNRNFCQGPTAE
assay_comment: HEK293-Blue-hTLR-9 cells assay
stated_conditions: HEK293-Blue-hTLR9 cells, ODN2006 stimulation, 20 hrs, SEAP reporter; read-out: HEK/hTLR9 IC50
Just the number plus its unit, please.

Task: Look up and state reported IC50 for C[C@@H]1CN(c2ccc(C#N)c3ncccc23)C[C@@H]2CN(Cc3ccc4c(c3)CNCC4)CCN21 (relative stereo) [Example 1]
Result: 58 nM

Task: Name the recorded IC50 of the molecule listed here: C[C@@H]1CN(c2ccc(C#N)c3ncccc23)C[C@@H]2CN(c3cccc4c3CNC4)CCN21 [Example 9]
Result: 79 nM

Task: Assign IC50 to the following record: C[C@@H]1CN(c2ccc(C#N)c3ncccc23)C[C@@H]2CN(Cc3cccc4c3CNC4)CCN21 [Example 72]
Result: 89 nM

* * *

target_entity: human TLR9 (Homo sapiens)
assay_comment: HEK293-Blue-hTLR-9 cells assay
stated_conditions: HEK293-Blue-hTLR9 cells, ODN2006 stimulation, 20 hrs, SEAP reporter; read-out: HEK/hTLR9 IC50
property_label: IC50 (nM)
Numeric answer only, unit nM assumed.

Task: Provide IC50, tested on human TLR9 (Homo sapiens), for C[C@@H]1CN(c2ccc(C#N)c3ncccc23)C[C@@H]2CN(Cc3ccc4c(c3)CCNC4)CCN21 .
Result: 43

Task: Under human TLR9 (Homo sapiens): report IC50 of [2H]c1ccc2c(N3C[C@@H]4CN(c5ncc(N6CC(C)(N)C6)cc5C)CCN4[C@@H](C)C3)ccc(C#N)c2n1 .
Result: 148

Task: Return reported IC50 for target or system human TLR9 (Homo sapiens), item Cc1cc(N2CCN3[C@@H](C2)CN(c2ccc(C#N)c4ncccc24)C[C@H]3C)nc(N2CCNCC2)n1 .
Result: 85

Task: Please report IC50 with human TLR9 (Homo sapiens) for item [2H]c1ccc2c(N3C[C@@H]4CN(Cc5ccc(N6C[C@@H]7C[C@H]6CN7)nc5C)CCN4[C@H](C)C3)ccc(C#N)c2n1 .
Result: 34

Task: Answer with IC50 of C[C@@H]1CN(c2ccc(C#N)n3ncc(F)c23)C[C@@H]2CN(Cc3ccc4c(c3)CNCC4)CCN21 measured for human TLR9 (Homo sapiens).
Result: 142

* * *

target_entity: human TLR7 (Homo sapiens)
Construct: host or cells: HEK293 (HEK-Blue hTLR7)
assay_comment: HEK293-Blue-hTLR-7 cells assay
Format: cell-based
stated_conditions: HEK293-Blue-hTLR7 cells, R848 stimulation, 20 hrs, SEAP reporter; read-out: HEK/hTLR7 IC50
Method: The following tests were carried out in order to determine the activity of the compounds of formula (I) and (Ia) in HEK293-Blue-hTLR-7/8/9 cells assay. HEK293-Blue-hTLR-7 cells assay: A stable HEK293-Blue-hTLR-7 cell line was purchased from InvivoGen (Cat. #: hkb-htlr7, San Diego, Calif., USA). […] Then 20 μL of the supernatant from each well was incubated with […] Quanti-blue substrate solution at 37° C. for 2 hrs and the absorbance was read at 620-655 nm using a spectrophotometer. […]
property_label: IC50 (nM)
Report the value in nM with no unit label.

Task: Tell us which IC50 value is on record for [2H]c1ccc2c(N3C[C@@H]4CN(c5ncc(N6CC(C)(N)C6)cc5C)CCN4[C@@H](C)C3)ccc(C#N)c2n1
Result: 4

Task: Please give the documented IC50 of C[C@@H]1CN(c2ccc(C#N)c3ncccc23)C[C@@H]2CN(c3cccc4c3CNC4)CCN21
Result: 3

Task: Give IC50 for the following compound: [2H]c1ccc2c(N3C[C@@H]4CN(CCc5ccc(N6CC[C@@](C)(N)C6)nc5)CCN4[C@H](C)C3)ccc(C#N)c2n1
Result: 16

Task: Please give the documented IC50 of CO[C@@H]1CN(c2ccc(CCN3CCN4[C@@H](C3)CN(c3ccc(C#N)n5ncc(F)c35)C[C@H]4C)cn2)C[C@H]1N
Result: 65
